- method: Cell viability of THP-1 (MTT)
- Assay type: cell-based, Human
- measurement.parameters: human, THP-1 monocytic cells; THP-1, 24 h, 1 mg/ml; read-out: Cell viability (wrt Untreated)
recorded.endpoint: viability at 24 h, 1 mg/ml (%)
Numbers only, in %.

Entry H-WVQRVVEKFLK-OH [IS181] — recorded viability at 24 h, 1 mg/ml = 61.3

* * *

- method: in vitro
- measurement.parameters: human, HaCaT keratinocytes
recorded.endpoint: cytotoxicity at 72 h, 5 µM (%)
Answers are plain numbers, in %.

Entry CN(Cc1cnc2nc(N)nc(N)c2n1)c1ccc(C(=O)N[C@@H](CCC(=O)O)C(=O)O)cc1 [MTX, methotrexate] — recorded cytotoxicity at 72 h, 5 µM = 22
